pEC50 values, listed per item
molecular target: CLK3 kinase (Homo sapiens); assay: CLK3 kinase activity assay (Z-lyte FRET); type: biochemical; conditions: Z-lyte Ser/Thr 18 peptide, 156 μM ATP, 1 h at room temperature
A value of pEC50 is the negative decimal logarithm of a concentration given in moles per litre.

| compound | assay_result |
| --- | --- |
| CC(C)Nc1cncc(-c2ccc3[nH]nc(-c4nc5c(-c6cc(F)cc(NCCN(C)C)c6)cncc5[nH]4)c3n2)c1 [compound 284] | 7.60 |
| CN(C)c1cncc(-c2ccc3[nH]nc(-c4nc5c(-c6cccs6)cncc5[nH]4)c3n2)c1 [compound 258] | 7.08 |
| CCNCc1cncc(-c2cnc3[nH]nc(-c4cc5c(-c6cc(F)cc(CNS(C)(=O)=O)c6)cncc5[nH]4)c3c2)c1 [compound 533] | 7.29 |
| CN(C)Cc1cncc(-c2cnc3[nH]nc(-c4nc5c(-c6ccsc6)cncc5[nH]4)c3c2)c1 [compound 252] | 6.93 |
| CCNCc1cncc(-c2cnc3[nH]nc(-c4nc5c(-c6cccc(F)c6)cccc5[nH]4)c3c2)c1 [compound 134] | 7.12 |

Query: Look up pEC50 for this compound: Cc1nnc(-c2ccc3cnc(NC(=O)c4ccnc(C5CCN(C)CC5)c4)cc3c2)s1 [compound 594]
Result: 7.85

Query: Can you check CN1CCN(c2cc(C(=O)Nc3cc4nc(-c5cnn(C)c5)ccc4cn3)ccn2)CC1 [compound 606] next?
Result: 7.22

Query: Can you check Cn1cc(-c2ccc3cnc(NC(=O)C4=CNC5C=CC=CC5=C4)cc3c2)cn1 (centres unmarked) [compound 559] next?
Result: 7.18

Query: Can you check CN1CCN(c2ccnc3[nH]c(-c4n[nH]c5ccc(-c6cncc(NC(=O)CC(C)(C)C)c6)nc45)cc23)CC1 [compound 480] next?
Result: 6.73

* * *

system: primary human mesenchymal stem cells (hMSCs); assay: Chondrogenesis screening using primary human mesenchymal stem cells; format: cell-based; conditions: Homo sapiens, Mesenchymal stem cells, hMSC chondrogenesis; concentration required to induce 50% levels of chondrogenesis with TGF-β3 as positive control; read-out: Conc (nM) of 50% TGF-β3 activity
Under this convention, T denotes EC50 strictly below 30 nM and F denotes EC50 at or above 30 nM.

Reference set, count: 8
| compound | system_tested | assigned_label |
| --- | --- | --- |
| Cc1ccc(-c2cncc3[nH]c(-c4n[nH]c5cnc(-c6cncc(N)c6)cc45)nc23)s1 [compound 274] | primary human mesenchymal stem cells (hMSCs) | F |
| CN(C)CCNc1cc(F)cc(-c2ccnc3[nH]c(-c4n[nH]c5cnc(-c6cncc(NC(=O)C(C)(C)C)c6)cc45)cc23)c1 [compound 513] | primary human mesenchymal stem cells (hMSCs) | T |
| CC(C)(C)CC(=O)Nc1cncc(-c2ccc3[nH]nc(-c4nc5ccncc5[nH]4)c3c2)c1 [compound 202] | primary human mesenchymal stem cells (hMSCs) | F |
| CN1CCCCN(C)c2nccc3[nH]c(nc23)-c2n[nH]c3ccc(cc23)-c2cncc(c2)C1 [compound 617] | primary human mesenchymal stem cells (hMSCs) | F |
| CCC(=O)Nc1cncc(-c2cnc3[nH]nc(-c4nc5c(-c6ccc(F)cc6)cncc5[nH]4)c3c2)c1 [compound 160] | primary human mesenchymal stem cells (hMSCs) | F |
| Cn1cc(-c2cnc3[nH]nc(-c4cc5cccnc5[nH]4)c3c2)cn1 [compound 454] | primary human mesenchymal stem cells (hMSCs) | F |
| O=C(Nc1cncc(-c2cc3c(-c4cc5cnccc5[nH]4)n[nH]c3cn2)c1)c1ccccc1 [compound 437] | primary human mesenchymal stem cells (hMSCs) | T |
| CN(C)Cc1cncc(-c2ccc3[nH]nc(-c4cc5c(N6CCCCC6)cccc5[nH]4)c3c2)c1 [compound 464] | primary human mesenchymal stem cells (hMSCs) | T |

Query: Would you kindly verify if EC50 of Oc1cncc(-c2ccc3[nH]nc(-c4nc5c(-c6cccc(F)c6)cncc5[nH]4)c3n2)c1 [compound 145] is strictly less than 30 nM?
Result: T

* * *

EC50 values, listed per item
molecular target: CLK3 kinase (Homo sapiens, UniProt P49761); test: CLK3 kinase activity assay (Z-lyte FRET); details: Z-lyte Ser/Thr 18 peptide, 156 μM ATP, 1 h at room temperature;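 note: kinase activity read as coumarin/fluorescein emission ratio by FRET, unphosphorylated peptide as 0% and phosphorylated peptide as 100% control, values from non-linear regression of dose-response curves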
Sequence (P49761 whole entry): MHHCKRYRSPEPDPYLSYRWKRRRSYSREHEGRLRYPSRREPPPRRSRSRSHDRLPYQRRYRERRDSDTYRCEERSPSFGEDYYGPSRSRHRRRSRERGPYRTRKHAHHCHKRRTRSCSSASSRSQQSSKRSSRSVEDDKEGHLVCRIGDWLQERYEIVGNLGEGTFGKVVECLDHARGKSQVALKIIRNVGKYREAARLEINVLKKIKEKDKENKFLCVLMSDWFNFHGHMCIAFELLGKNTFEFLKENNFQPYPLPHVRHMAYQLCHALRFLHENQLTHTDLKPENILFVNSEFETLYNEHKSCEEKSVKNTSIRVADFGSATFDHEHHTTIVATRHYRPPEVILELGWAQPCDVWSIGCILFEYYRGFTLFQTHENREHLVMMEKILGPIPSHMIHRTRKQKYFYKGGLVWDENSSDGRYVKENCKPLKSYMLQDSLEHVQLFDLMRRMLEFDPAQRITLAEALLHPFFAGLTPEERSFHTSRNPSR
Write the answer as a number in nM, unit excluded.

| compound | assay_result |
| --- | --- |
| CN(C)C(=O)Nc1cncc(-c2cnc3[nH]nc(-c4nc5c(-c6cccc(F)c6)cncc5[nH]4)c3c2)c1 | 18 |
| CC(C)Nc1cncc(-c2ccc3[nH]nc(-c4nc5c(-c6ccoc6)nccc5[nH]4)c3n2)c1 | 230 |
| Cn1cc(-c2cc3c(-c4nc5c(-c6cccc(F)c6)nccc5[nH]4)n[nH]c3cn2)cn1 | 1800 |
| O=C(Nc1ccc(N2CCC(O)CC2)nc1)c1n[nH]c2ccc(-c3cncc(CN4CCCCC4)c3)cc12 | 22 |

Query: Look up EC50 for this compound: "CC(C)Nc1cncc(-c2ccc3cnc(NC(=O)C4CCN(CCF)CC4)cc3c2)n1"
Result: 52

Query: Can you check "c1cncc(-c2cnc3[nH]nc(-c4cc5cccnc5[nH]4)c3c2)c1" next?
Result: 351

Query: Can you check "CCCCC(=O)Nc1cncc(-c2ccc3[nH]nc(-c4cc5cccnc5[nH]4)c3c2)c1" next?
Result: 344

Query: Can you check "c1cc(-c2ccoc2)c2cc(-c3n[nH]c4ccc(-c5cncc(CNCC6CCCC6)c5)nc34)[nH]c2c1" next?
Result: 336

Query: Can you check Fc1cccc(-c2cncc3[nH]c(-c4n[nH]c5ccc(-c6cncc(CN7CCC(F)(F)C7)c6)cc45)nc23)c1 [compound 142] next?
Result: 90

Query: Can you check "c1cncc(-c2ccc3[nH]nc(-c4nc5c(-c6cccnc6)ccnc5[nH]4)c3n2)c1" next?
Result: 308

Query: Can you check "CN(C)Cc1cncc(-c2ccc3[nH]nc(-c4cc5c(-c6ccncc6)cncc5[nH]4)c3c2)c1" next?
Result: 56

Query: Can you check "CN1CCN(c2cncc3[nH]c(-c4n[nH]c5ccc(-c6cncc(NC(=O)CC7CCNCC7)c6)cc45)cc23)CC1" next?
Result: 303

Query: Can you check "CCN(C)Cc1cncc(-c2cnc3[nH]nc(-c4nc5c(-c6cccc(F)c6)cncc5[nH]4)c3c2)c1" next?
Result: 22

Query: Can you check "O=C(Nc1nc2c(-c3cccc(F)c3)cncc2[nH]1)c1n[nH]c2ccc(-c3cccnc3)cc12" next?
Result: 48

Query: Can you check "Oc1cncc(-c2ccc3[nH]nc(-c4nc5c(-c6cccc(F)c6)nccc5[nH]4)c3n2)c1" next?
Result: 93

* * *

biological target: CLK2 kinase (Homo sapiens, UniProt P49760); assay: CLK2 kinase activity assay (Z-lyte FRET); conditions: Z-lyte Ser/Thr 6 peptide, 60 μM ATP, 1 h at room temperature;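 note: FRET read-out as coumarin to fluorescein emission ratio, unphosphorylated peptide as 0% and phosphorylated peptide as 100% controls, duplicate reactions, non-linear regression fit of dose-response curves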
Sequence (P49760 whole entry): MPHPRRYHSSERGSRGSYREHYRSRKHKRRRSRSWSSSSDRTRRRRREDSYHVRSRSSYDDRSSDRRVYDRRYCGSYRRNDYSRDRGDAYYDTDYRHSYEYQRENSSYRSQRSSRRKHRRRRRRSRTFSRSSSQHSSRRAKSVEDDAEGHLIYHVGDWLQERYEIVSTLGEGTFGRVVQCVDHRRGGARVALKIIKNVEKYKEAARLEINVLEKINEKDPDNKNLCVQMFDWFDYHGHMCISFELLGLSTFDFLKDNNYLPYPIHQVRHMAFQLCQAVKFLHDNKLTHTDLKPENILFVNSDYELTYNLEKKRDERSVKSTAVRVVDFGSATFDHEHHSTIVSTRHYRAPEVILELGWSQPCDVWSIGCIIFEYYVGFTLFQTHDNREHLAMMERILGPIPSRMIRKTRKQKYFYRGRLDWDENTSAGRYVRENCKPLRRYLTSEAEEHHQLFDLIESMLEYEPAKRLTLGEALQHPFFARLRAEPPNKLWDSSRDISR
pEC50: −log10 of the molar value.
Assign yes to entries whose pEC50 meets or exceeds 8; assign no to the rest.

Reference set, count: 3
| molecule | assigned_label |
| --- | --- |
| Cn1cncc1-c1ccc2cnc(NC(=O)c3ccnc(N4CCN(C5CC5)CC4)c3)cc2c1 [compound 582] | yes |
| CCC(=O)Nc1cncc(-c2cnc3[nH]nc(-c4nc5c(-c6ccsc6)cccc5[nH]4)c3c2)c1 [compound 243] | yes |
| O=C(Nc1ccc(C2CCC(F)(F)C2)nc1)c1n[nH]cc1C#Cc1cccnc1 (centres unmarked) [compound 27] | no |

Kindly review the next molecule as well.
Query: Can c1cncc(-c2cc3c(-c4nc5ccccc5[nH]4)n[nH]c3cn2)c1 [compound 200] be said to have pEC50 at or above 8?
Result: no

* * *

test system: primary human mesenchymal stem cells (hMSCs); assay: Chondrogenesis screening using primary human mesenchymal stem cells; assay type: cell-based; conditions: Homo sapiens, Mesenchymal stem cells, hMSC chondrogenesis; concentration required to induce 50% levels of chondrogenesis with TGF-β3 as positive control; read-out: Conc (nM) of 50% TGF-β3 activity
measurement_kind: EC50 (nM)
Write the answer as a number in nM, unit excluded.

| compound | system_tested | EC50 [nM] |
| --- | --- | --- |
| Fc1ccc(-c2nccc3[nH]c(-c4n[nH]c5cnc(-c6cncc(CN7CCC(F)(F)C7)c6)cc45)cc23)cc1 [compound 316] | primary human mesenchymal stem cells (hMSCs) | 10 |
| CN(C)CCOc1cncc(-c2cc3c(-c4cc5c(-c6ccc(F)cc6)nccc5[nH]4)n[nH]c3cn2)c1 [compound 318] | primary human mesenchymal stem cells (hMSCs) | 900 |
| CS(=O)(=O)NCc1cc(F)cc(-c2cncc3[nH]c(-c4n[nH]c5ccc(-c6cncc(NC(=O)C7CC7)c6)nc45)cc23)c1 [compound 526] | primary human mesenchymal stem cells (hMSCs) | 10 |

Query: Look up EC50 for this compound: CC(C)Nc1cncc(-c2ccc3[nH]nc(-c4nc5c(-c6cc(F)cc(NCCN(C)C)c6)cncc5[nH]4)c3n2)c1 [compound 284]
Result: 300

Query: Can you check CCC(=O)Nc1cncc(-c2cnc3[nH]nc(-c4cc5c(-c6cccnc6)cccc5[nH]4)c3c2)c1 [compound 348] next?
Result: 10

Query: Can you check CN1CCN(c2ccnc3[nH]c(-c4n[nH]c5cnc(-c6cncc(CNCC7CCCC7)c6)cc45)cc23)CC1 [compound 489] next?
Result: 300

Query: Can you check Clc1ccc(-c2cncc3[nH]c(-c4n[nH]c5ccc(-c6cncc(CN7CCCC7)c6)nc45)nc23)s1 [compound 270] next?
Result: 10

Query: Can you check Cc1ccc(-c2nccc3[nH]c(-c4n[nH]c5cnc(-c6cncc(N)c6)cc45)nc23)s1 [compound 273] next?
Result: 10

Query: Can you check Nc1cncc(-c2cnc3[nH]nc(-c4cc5c(-c6ccccc6F)nccc5[nH]4)c3c2)c1 [compound 321] next?
Result: 30

Query: Can you check CCCCC(=O)Nc1cncc(-c2ccc3[nH]nc(-c4nc5c(-c6cc(F)cc(NCCN(C)C)c6)ccnc5[nH]4)c3n2)c1 [compound 280] next?
Result: 10

Query: Can you check Nc1cncc(-c2cnc3[nH]nc(-c4nc5c(-c6ccccc6F)ccnc5[nH]4)c3c2)c1 [compound 168] next?
Result: 300
